# Protocol Text: ATG_FoxO_CIS: Attagene CIS-FACTORIAL HepG2 Assay for human Forkhead box O (FoxO) (AID 2282943)
# Test Context: HepG2 Attagene cis-reporter, FoxO element, mRNA; actives raise or lower the signal
The source made the active and inactive calls. How the source made its calls: active means hit-call score of the fitted dose curve at least 0.9, where 1 is the maximum; inactive means score below 0.9.
Respond with a class label; see active, inactive

The following compounds have reported results that may help.
>>> label_class("O=C1CCCN1")
"inactive"
>>> label_class("COC[C@H](C)N(C(=O)CCl)c1c(C)csc1C")
"inactive"
>>> label_class("COP(=S)(OC)Oc1ccc(S(=O)(=O)N(C)C)cc1")
"inactive"
>>> label_class("CCOC(=O)CP(=O)(OCC)OCC")
"inactive"

Request: Would you mind telling me which call this test gave C[C@H]1O[C@@H](O[C@H]2[C@@H](O)C[C@H](O[C@H]3[C@@H](O)C[C@H](O[C@H]4CC[C@@]5(C)[C@H](CC[C@@H]6[C@@H]5CC[C@]5(C)[C@@H](C7=CC(=O)OC7)CC[C@]65O)C4)O[C@@H]3C)O[C@@H]2C)C[C@H](O)[C@@H]1O ?
Result: active
